Source of measurements: the supplement of paper PMC9112550

Test system: Escherichia coli TOP10
Assay: shrunken log2 fold change of peptide-encoding DNA abundance (4.5 h post-induction vs induction); higher = less antimicrobial activity (less host growth inhibition)
Conditions: time post-induction: 4.5 h; library: site-saturation at positions 5, 18, 19, 20
metric: shrunken log2 fold change
A bare number is all that is needed in reply.

[Q] For the sequence shown here, RRIRIRPPRLPRPRPRPYRAPRP , give the reported shrunken log2 fold change.
[A] -0.77

* * *

Test system: Escherichia coli TOP10
Assay: shrunken log2 fold change of peptide-encoding DNA abundance (4.5 h post-induction vs induction); higher = less antimicrobial activity (less host growth inhibition)
Conditions: time post-induction: 4.5 h; library: site-saturation at positions 5, 18, 19, 20
Listed below: shrunken log2 fold change values for each entry.
A bare number is all that is needed in reply.

Here are 6 sequences together with their reported answers.
>>> print(df.to_string())
          primary_sequence  value_observed
0  RRIRLRPPRLPRPRPRPVPAPRP           0.222
1  RRIRFRPPRLPRPRPRPCNMPRP           -1.46
2  RRIRWRPPRLPRPRPRPNMFPRP         -0.0911
3  RRIRMRPPRLPRPRPRPFSRPRP          0.0409
4  RRIRGRPPRLPRPRPRPCDSPRP          0.0374
5  RRIRWRPPRLPRPRPRPREHPRP           0.822

[Q] For the sequence shown here, RRIRDRPPRLPRPRPRPGMWPRP , give the reported shrunken log2 fold change.
[A] 0.634

[Q] Try this sequence next: RRIRRRPPRLPRPRPRPRNAPRP
[A] 0.356

[Q] Try this sequence next: RRIRGRPPRLPRPRPRPNRDPRP
[A] 0.0612

[Q] Try this sequence next: RRIRYRPPRLPRPRPRPWFDPRP
[A] -0.415

[Q] Try this sequence next: RRIRKRPPRLPRPRPRPAQVPRP
[A] 0.296

[Q] Try this sequence next: RRIRDRPPRLPRPRPRPIFHPRP
[A] -0.158

[Q] Try this sequence next: RRIRRRPPRLPRPRPRPNVWPRP
[A] 1.99

[Q] Try this sequence next: RRIRNRPPRLPRPRPRPMGYPRP
[A] -0.00459

[Q] Try this sequence next: RRIRDRPPRLPRPRPRPVIFPRP
[A] 0.212

* * *

Test system: Escherichia coli TOP10
Assay: shrunken log2 fold change of peptide-encoding DNA abundance (4.5 h post-induction vs induction); higher = less antimicrobial activity (less host growth inhibition)
Conditions: time post-induction: 4.5 h; library: site-saturation at positions 5, 18, 19, 20
Listed below: shrunken log2 fold change values for each entry.
A bare number is all that is needed in reply.

Here are 6 sequences together with their reported answers.
In [3]: df
Out[3]:
          primary_sequence  value_observed
0  RRIRQRPPRLPRPRPRPYTVPRP          -0.104
1  RRIRPRPPRLPRPRPRPRPEPRP           0.373
2  RRIRNRPPRLPRPRPRPGEVPRP          -0.121
3  RRIRSRPPRLPRPRPRPPKPPRP           0.149
4  RRIRRRPPRLPRPRPRPGNNPRP          -0.365
5  RRIRWRPPRLPRPRPRPVTIPRP          -0.269

[Q] For the sequence shown here, RRIRVRPPRLPRPRPRPVIIPRP , give the reported shrunken log2 fold change.
[A] -0.182

[Q] Try this sequence next: RRIRKRPPRLPRPRPRPHTCPRP
[A] 0.00412

[Q] Try this sequence next: RRIRIRPPRLPRPRPRPIGDPRP
[A] -0.0264

[Q] Try this sequence next: RRIRIRPPRLPRPRPRPHGIPRP
[A] -0.0115

[Q] Try this sequence next: RRIRRRPPRLPRPRPRPRCFPRP
[A] 0.474

[Q] Try this sequence next: RRIRTRPPRLPRPRPRPCRAPRP
[A] -0.0539

* * *

Test system: Escherichia coli TOP10
Assay: shrunken log2 fold change of peptide-encoding DNA abundance (4.5 h post-induction vs induction); higher = less antimicrobial activity (less host growth inhibition)
Conditions: time post-induction: 4.5 h; library: site-saturation at positions 5, 18, 19, 20
Measured shrunken log2 fold change determines class: Low: < -0.08; Mid: ≥ -0.08 and < 0.2; High: ≥ 0.2

[Q] Could you tell me which band RRIRIRPPRLPRPRPRPITYPRP belongs to?
[A] Low

[Q] Try this sequence next: RRIRYRPPRLPRPRPRPVSGPRP
[A] Low

[Q] Try this sequence next: RRIRLRPPRLPRPRPRPDRGPRP
[A] Mid

[Q] Try this sequence next: RRIRIRPPRLPRPRPRPEEAPRP
[A] High

[Q] Try this sequence next: RRIRARPPRLPRPRPRPEWSPRP
[A] High

[Q] Try this sequence next: RRIRYRPPRLPRPRPRPLTNPRP
[A] Low

[Q] Try this sequence next: RRIRKRPPRLPRPRPRPGFGPRP
[A] High

[Q] Try this sequence next: RRIRWRPPRLPRPRPRPYMFPRP
[A] Low

[Q] Try this sequence next: RRIRYRPPRLPRPRPRPTFMPRP
[A] Mid

[Q] Try this sequence next: RRIRPRPPRLPRPRPRPGRDPRP
[A] High

[Q] Try this sequence next: RRIRNRPPRLPRPRPRPQSCPRP
[A] Mid

[Q] Try this sequence next: RRIRARPPRLPRPRPRPHFKPRP
[A] Mid

[Q] Try this sequence next: RRIRDRPPRLPRPRPRPTVEPRP
[A] High

[Q] Try this sequence next: RRIRERPPRLPRPRPRPNWQPRP
[A] Mid

[Q] Try this sequence next: RRIRARPPRLPRPRPRPCYCPRP
[A] Mid

* * *

Tested on: Escherichia coli TOP10
Test: shrunken log2 fold change of peptide-encoding DNA abundance (4.5 h post-induction vs induction); higher = less antimicrobial activity (less host growth inhibition)
Details: time post-induction: 4.5 h; library: site-saturation at positions 5, 18, 19, 20
Listed below: shrunken log2 fold change values for each entry.
A bare number is all that is needed in reply.

Here are 3 sequences together with their reported answers.
>>> df
          primary_sequence                     metric  value_observed
0  RRIRHRPPRLPRPRPRPPFWPRP  shrunken log2 fold change          0.0835
1  RRIRPRPPRLPRPRPRPVCKPRP  shrunken log2 fold change          0.0717
2  RRIRCRPPRLPRPRPRPFDSPRP  shrunken log2 fold change        -0.00174

[Q] For the sequence shown here, RRIRHRPPRLPRPRPRPFFWPRP , give the reported shrunken log2 fold change.
[A] 0.093

[Q] Try this sequence next: RRIRVRPPRLPRPRPRPALRPRP
[A] 0.306

[Q] Try this sequence next: RRIRQRPPRLPRPRPRPHKFPRP
[A] -0.279

[Q] Try this sequence next: RRIRRRPPRLPRPRPRPCDIPRP
[A] 0.181

[Q] Try this sequence next: RRIRMRPPRLPRPRPRPHVKPRP
[A] -0.282

[Q] Try this sequence next: RRIRRRPPRLPRPRPRPNLRPRP
[A] 0.00766

[Q] Try this sequence next: RRIRGRPPRLPRPRPRPKWWPRP
[A] 1.13

[Q] Try this sequence next: RRIRHRPPRLPRPRPRPAAGPRP
[A] 0.323

[Q] Try this sequence next: RRIRNRPPRLPRPRPRPEFRPRP
[A] -0.107

[Q] Try this sequence next: RRIRVRPPRLPRPRPRPEEFPRP
[A] -0.034

* * *

System: Escherichia coli TOP10
Assay: shrunken log2 fold change of peptide-encoding DNA abundance (4.5 h post-induction vs induction); higher = less antimicrobial activity (less host growth inhibition)
Conditions: time post-induction: 4.5 h; library: site-saturation at positions 5, 18, 19, 20
Label true when shrunken log2 fold change >= -0.1; otherwise false.

[Q] Exam item: decide whether the reported shrunken log2 fold change for RRIRMRPPRLPRPRPRPYYGPRP is at least -0.1.
[A] true

* * *

System: Escherichia coli TOP10;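 note: peptides expressed intracellularly from a pBAD plasmid library in pooled LB shake-flask culture, induced with 0.3% L-arabinose, DNA abundance read by NGS, three biological replicates, DESeq2 with apeglm shrinkage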
Test: shrunken log2 fold change of peptide-encoding DNA abundance (4.5 h post-induction vs induction); higher = less antimicrobial activity (less host growth inhibition)
Conditions: time post-induction: 4.5 h; library: site-saturation at positions 5, 18, 19, 20
metric: shrunken log2 fold change

Here are 3 sequences together with their reported answers.
>>> df
          primary_sequence       target_under_test                     metric  value_observed
0  RRIRDRPPRLPRPRPRPKACPRP  Escherichia coli TOP10  shrunken log2 fold change           0.024
1  RRIRERPPRLPRPRPRPFNEPRP  Escherichia coli TOP10  shrunken log2 fold change          -0.226
2  RRIRGRPPRLPRPRPRPLFDPRP  Escherichia coli TOP10  shrunken log2 fold change           0.548

[Q] For the sequence shown here, RRIRHRPPRLPRPRPRPVHHPRP , give the reported shrunken log2 fold change.
[A] -0.0583

[Q] Try this sequence next: RRIRIRPPRLPRPRPRPTALPRP
[A] 0.0424

[Q] Try this sequence next: RRIRIRPPRLPRPRPRPGQWPRP
[A] -0.124

[Q] Try this sequence next: RRIRMRPPRLPRPRPRPINIPRP
[A] -0.0393

[Q] Try this sequence next: RRIRIRPPRLPRPRPRPNLMPRP
[A] -0.377

[Q] Try this sequence next: RRIRARPPRLPRPRPRPVIRPRP
[A] -0.055

[Q] Try this sequence next: RRIRCRPPRLPRPRPRPHRAPRP
[A] -0.096

[Q] Try this sequence next: RRIRIRPPRLPRPRPRPCEDPRP
[A] -0.424
